# TESTED_SYSTEM: GSK3b (GST-full length GSK3b) (Homo sapiens (Human))
# Sequence (P49841 whole entry): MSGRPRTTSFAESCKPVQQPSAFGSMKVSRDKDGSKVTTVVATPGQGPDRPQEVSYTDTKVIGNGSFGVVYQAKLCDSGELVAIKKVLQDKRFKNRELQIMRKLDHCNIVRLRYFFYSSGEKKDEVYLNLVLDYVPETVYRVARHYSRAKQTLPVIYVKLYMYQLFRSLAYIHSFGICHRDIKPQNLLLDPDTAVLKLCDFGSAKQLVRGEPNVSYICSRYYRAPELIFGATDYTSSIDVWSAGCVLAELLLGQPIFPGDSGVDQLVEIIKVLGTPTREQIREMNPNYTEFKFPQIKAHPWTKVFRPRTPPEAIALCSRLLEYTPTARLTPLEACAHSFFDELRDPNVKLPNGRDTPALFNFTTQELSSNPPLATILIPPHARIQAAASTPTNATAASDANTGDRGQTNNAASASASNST
# ASSAY_NAME: GSK3b TR-FRET kinase assay
# Format: biochemical
# CONDITION_SET: 1 nM GSK3b, 2 μM ATP, 30 minute preincubation, Table 16; read-out: GSK3-B TR-FRET BIOCHEMICAL (TR-FRET)
EXPERIMENTAL_READOUT: IC50

Here are 10 compounds together with their reported answers.
- Cc1cc([C@H]2CC[C@]3(CC2)C2=C(CC(C)(C)CC2=O)Nc2n[nH]cc23)ccn1 [Compound 948416]: 100 to 1000 nM
- CCC1(c2cccc(-c3nc(C)ncc3C)c2)C2=C(CC(C)(C)CC2=O)Nc2n[nH]cc21 (stereo not drawn) [Compound 948091]: 100 to 1000 nM
- CCc1cccc(C2(CC)C3=C(CC(C)(C)CC3=O)Nc3n[nH]cc32)c1 (stereo not drawn) [Compound 949391]: > 5000 nM
- CCC1(c2cccc(-c3cc(C)nn3C)c2)C2=C(CC(C)(C)CC2=O)Nc2n[nH]cc21 (stereo not drawn) [Compound 946097]: 100 to 1000 nM
- CCC1(c2cccc(Nc3ncccn3)c2)C2=C(CC(C)(C)CC2=O)Nc2n[nH]cc21 (stereo not drawn) [Compound 945958]: > 5000 nM
- CC1(C)CC(=O)C2=C(C1)Nc1n[nH]cc1C21CCCN(S(=O)(=O)C2CC2)CC1 (stereo not drawn) [Compound 917137]: ≤ 100 nM
- CC1(C)CC(=O)C2=C(C1)Nc1n[nH]cc1[C@]21CCCN(S(=O)(=O)C2CC2)CC1 [Compound 932659]: 100 to 1000 nM
- CC[C@]1(c2cccc(-c3ccncc3C(F)(F)F)c2)C2=C(CC(C)(C)CC2=O)Nc2n[nH]cc21 [Compound 943913]: ≤ 100 nM
- Cn1cc(S(=O)(=O)N2CC[C@]3(C2)C2=C(CC(C)(C)CC2=O)Nc2n[nH]cc23)cn1 [Compound 943483]: ≤ 100 nM
- CC1(C)CC(=O)C2=C(C1)Nc1n[nH]cc1C21CCN(S(=O)(=O)c2cccc(Cl)c2Cl)CC1 [Compound 947249]: ≤ 100 nM

For each listed entry, give its IC50.
1. CC1(C)CC(=O)C2=C(C1)Nc1n[nH]cc1C21CCN(S(=O)(=O)c2ccccc2C#N)CC1 [Compound 947479]
2. CC1(C)CC(=O)C2=C(C1)Nc1n[nH]cc1[C@@]21CO[C@H](c2ccccc2)C1 [Compound 946072]
3. CO[C@H]1CC[C@]2(CC1)C1=C(CC(C)(C)CC1=O)Nc1n[nH]cc12 [Compound 884119]

1: ≤ 100 nM; 2: 100 to 1000 nM; 3: 100 to 1000 nM

For each listed entry, give its IC50.
1. CC[C@]1(c2cccc(-c3ccnc4ccccc34)c2)C2=C(CC(C)(C)CC2=O)Nc2n[nH]cc21 [Compound 944031]
2. CC1(C)CC(=O)C2=C(C1)Nc1n[nH]cc1C21CCN(S(=O)(=O)c2cnc3n2CCCC3)CC1 [Compound 947480]

["≤ 100 nM", "≤ 100 nM"]

----------
Hi there, I'd appreciate the recorded IC50 for every entry that follows.
# TESTED_SYSTEM: GSK3α (GST-full length GSK3α) (Homo sapiens (Human), UniProt P49840)
# Sequence (P49840 whole entry): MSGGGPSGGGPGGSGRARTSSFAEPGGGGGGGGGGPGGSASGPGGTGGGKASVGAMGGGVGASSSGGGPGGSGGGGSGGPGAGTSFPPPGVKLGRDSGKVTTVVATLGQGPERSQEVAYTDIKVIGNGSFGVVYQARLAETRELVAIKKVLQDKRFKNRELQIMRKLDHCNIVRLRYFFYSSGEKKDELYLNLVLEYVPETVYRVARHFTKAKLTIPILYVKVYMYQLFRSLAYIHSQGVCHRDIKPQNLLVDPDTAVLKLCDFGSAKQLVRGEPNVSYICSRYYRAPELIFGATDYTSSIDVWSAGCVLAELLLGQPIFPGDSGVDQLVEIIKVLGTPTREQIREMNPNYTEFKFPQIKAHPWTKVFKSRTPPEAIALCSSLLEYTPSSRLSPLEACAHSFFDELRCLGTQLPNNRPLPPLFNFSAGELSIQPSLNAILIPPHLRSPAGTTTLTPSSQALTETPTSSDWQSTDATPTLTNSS
# ASSAY_NAME: GSK3α TR-FRET kinase assay
# Format: biochemical
# CONDITION_SET: 1 nM GSK3α, 4 μM ATP, 30 minute preincubation; geometric mean; read-out: GSK3-A TR-FRET BIOCHEMICAL (TR-FRET); GMean; IC50

Here are 4 compounds together with their reported answers.
* CC[C@]1(c2cccc(-c3ccncc3C)c2)C2=C(CC(C)(C)NC2=O)Nc2n[nH]c(C)c21 | 1000 to 5000 nM
* CCC1(c2cccc(C(F)(F)F)c2)C2=C(CCN(c3ccc(F)cc3)C2=O)Nc2n[nH]cc21 (stereo not shown) | ≤ 100 nM
* CC1(C)CC(=O)C2=C(C1)Nc1n[nH]cc1C2(C)c1cc(Cl)ccc1F (stereo not shown) | 100 to 1000 nM
* CCC1(c2cccc(N(C)c3ccncc3)c2)C2=C(CC(C)(C)CC2=O)Nc2n[nH]cc21 (stereo not shown) [Compound 874261] | 100 to 1000 nM

For each listed entry, give its IC50.
1. CC[C@]1(c2cccc(-c3cn[nH]c3)c2)C2=C(CC(C)(C)NC2=O)Nc2n[nH]c(C(F)(F)F)c21
2. CCC1(c2cccc(-c3ccncc3F)c2)C2=C(CC(C)(C)NC2=O)Nc2n[nH]c(F)c21 (stereo not shown)
3. CCC1(c2cccc(-c3cnn(C)c3C(F)(F)F)c2)C2=C(CC(C)(C)NC2=O)Nc2n[nH]cc21 (stereo not shown)
4. CC[C@]1(c2cccc(-c3ccnc4ccc(Cl)cc34)c2)C2=C(CC(C)(C)N(C)C2=O)Nc2n[nH]cc21

["≤ 100 nM", "≤ 100 nM", "1000 to 5000 nM", "≤ 100 nM"]

For each listed entry, give its IC50.
1. CC1(C)CC(=O)C2=C(C1)Nc1n[nH]cc1[C@@]21CCc2c(F)cccc21
2. C[C@@H]1CC(=O)C2=C(C1)Nc1n[nH]cc1[C@@]2(C)c1ccccc1
3. CCC1(c2cccc(-c3ccnc(C)c3)c2)C2=C(CC(C)(C)NC2=O)Nc2n[nH]c(Cl)c21 (stereo not shown)
4. CC[C@@]1(c2cccc(N3CCOCC3)c2)C2=C(CC(C)(C)CC2=O)Nc2n[nH]cc21
5. CC[C@@]1(c2cccc(-c3cc(OC)nc4ccccc34)c2)C2=C(CC(C)(C)NC2=O)Nc2n[nH]cc21
6. CCC1(c2cccc(N3CCCCC3)c2)C2=C(CC(C)(C)NC2=O)Nc2n[nH]c(C)c21 (stereo not shown)
7. CCC1(c2cccc(-c3cnn(C)c3)c2)C2=C(CC(C)(C)NC2=O)Nc2n[nH]c(F)c21 (stereo not shown)

1: > 1670 nM; 2: > 5000 nM; 3: ≤ 100 nM; 4: > 5000 nM; 5: > 5000 nM; 6: ≤ 100 nM; 7: ≤ 100 nM

Entry CCC1(c2cccc(-c3ccnc4cc(Cl)c(C)cc34)c2)C2=C(CC(C)(C)NC2=O)Nc2n[nH]cc21 (stereo not shown) , IC50 reported as > 5000 nM
